Recorded IC50 by entry
Study target: HIV-1 protease (Human immunodeficiency virus type 1 group M subtype B)
Assay name: inhibitory activity against HIV-1 protease (cleavage of substrate Suc-Ser-Gln-Asn-Tyr-Pro-Ile-Val-Gln, HPLC / PICO-TAG analysis)
Type: biochemical
Design: partial pol protein containing HIV-1 protease; β-galactosidase (fusion partner in the expressed precursor); made in house; host or cells: E. coli K12 (UT481)
Measurement parameters: same way as in 2) in Example 1

{"columns": ["Compound", "IC50"],
 "data": [
  ["CCCCCCCCCCCCCC(=O)N[C@@H](CCSC)C(=O)O", "44 µM"],
  ["CCCCCCCCCCCC(=O)N[C@@H](CCSC)C(=O)O", "124 µM"]
]}

----------
Here the recorded IC50 is given for each entry.
Study target: HIV-1 protease (Human immunodeficiency virus type 1 group M subtype B)
Assay name: inhibitory activity against HIV-1 protease (cleavage of substrate Suc-Ser-Gln-Asn-Tyr-Pro-Ile-Val-Gln, HPLC / PICO-TAG analysis)
Type: biochemical
Parameters: β-galactosidase (fusion partner in the expressed precursor); made in house; host or cells: E. coli K12 (UT481)
Measurement parameters: class symbols, inhibitory effect at 500 µM or less; read-out: IC50(µM) (Inhibitory effect)
Where no end group is shown, it is not given here.

{"columns": ["Substance", "IC50"],
 "data": [
  ["VTNTATIM [Compound 22, VTNTATIM]", "≥ 500 µM"],
  ["AEAMSQV [Compound 13, AEAMSQV]", "≥ 500 µM"],
  ["AEAMAQVTN [Compound 9, AEAMAQVTN]", "≤ 500 µM"],
  ["AEAMSQVANTATIM [Compound 5, AEAMSQVANTATIM]", "≤ 500 µM"],
  ["AEAMSQVT [Compound 12, AEAMSQVT]", "≥ 500 µM"],
  ["AAAMSQVTN [Compound 7, AAAMSQVTN]", "≤ 500 µM"],
  ["AEAMSQVAN [Compound 10, AEAMSQVAN]", "≥ 500 µM"],
  ["AEAASQVTN [Compound 8, AEAASQVTN]", "≥ 500 µM"],
  ["AEAMSQ [Compound 17, AEAMSQ]", "≥ 500 µM"]
]}

----------
This section presents compounds with their documented IC50 values.
Study target: HIV-1 protease (Human immunodeficiency virus type 1 group M subtype B)
Assay name: inhibitory activity against HIV-1 protease (cleavage of substrate Suc-Ser-Gln-Asn-Tyr-Pro-Ile-Val-Gln, HPLC / PICO-TAG analysis)
Assay type: biochemical
Set-up: β-galactosidase (fusion partner in the expressed precursor); made in house; host or cells: E. coli K12 (UT481)
Measurement parameters: class symbols, inhibitory effect at 500 µM or less; read-out: IC50(µM) (Inhibitory effect)
*1 amine or outer side, *2 acyl side, *3 side chain or, on linkers, in order; H or OH if unused. Where a SMILES comes first, the peptide text is derived from it. [ ]: non-standard residue; d: D form. Suc = O=C(CCC(=O)[*:2])[*:1]; Aoc = NCCCCCCCC(=O)O; Ahx = NCCCCCC(=O)O

{"columns": ["Compound", "IC50"],
 "data": [
  ["CC[C@H](C)[C@H](NC(=O)[C@@H](NC(=O)[C@H](C)NC(=O)[C@@H](NC(=O)[C@H](CC(N)=O)NC(=O)[C@@H](NC(=O)[C@@H](NC(=O)[C@H](CCC(N)=O)NC(=O)[C@H](CO)NC(=O)[C@H](CCSC)NC(=O)[C@H](C)NC(=O)[C@H](CCC(=O)O)NC(=O)[C@H](C)N)C(C)C)[C@@H](C)O)[C@@H](C)O)[C@@H](C)O)C(=O)N[C@@H](CCSC)C(=O)O [Compound 4, AEAMSQVTNTATIM]", "≤ 500 µM"],
  ["CSCC[C@H](NC(=O)[C@H](C)NC(=O)[C@H](CCC(=O)O)NC(=O)[C@H](C)NC(=O)CCC(=O)O)C(=O)N[C@@H](CO)C(=O)N[C@@H](CCC(N)=O)C(=O)NCCCCCC(=O)O [Compound 16, Suc-AEAMSQAhx] (Suc-AEAMSQ[Ahx]-OH)", "≥ 500 µM"],
  ["CSCC[C@H](NC(=O)[C@H](C)NC(=O)[C@H](CCC(=O)O)NC(=O)[C@H](C)N)C(=O)N[C@@H](CO)C(=O)N[C@@H](CCC(N)=O)C(=O)NCCCCCCCC(=O)O [Compound 14, AEAMSQAoc] (H-AEAMSQ[Aoc]-OH)", "≥ 500 µM"],
  ["CSCC[C@H](NC(=O)[C@H](C)NC(=O)[C@H](CCC(=O)O)NC(=O)[C@H](C)N)C(=O)N[C@@H](CO)C(=O)N[C@@H](CCC(N)=O)C(=O)NCCCCCC(=O)O [Compound 15, AEAMSQAhx] (H-AEAMSQ[Ahx]-OH)", "≥ 500 µM"],
  ["CSCC[C@H](NC(=O)CCCCCCCN)C(=O)O [Compound 27, N-AocM]", "≥ 500 µM"],
  ["CSCC[C@H](NC(=O)CCCCCCCN)C(=O)NCCCCCCCC(=O)NCCCCCCCC(=O)O [Compound 29, N-AocMAocAoc]", "≥ 500 µM"],
  ["CSCC[C@H](NC(=O)CCCCCCCNC(=O)CCCCCCCN)C(=O)NCCCCCCCC(=O)O [Compound 30, N-AocAocMAoc]", "≥ 500 µM"],
  ["CC[C@H](C)[C@H](NC(=O)[C@@H](NC(=O)[C@H](C)NC(=O)[C@@H]1CCCN1C(=O)[C@H](CC(N)=O)NC(=O)[C@@H](NC(=O)[C@@H](NC(=O)[C@H](CCC(N)=O)NC(=O)[C@H](CO)NC(=O)[C@H](CCSC)NC(=O)[C@H](C)NC(=O)[C@H](CCC(=O)O)NC(=O)[C@H](C)N)C(C)C)[C@@H](C)O)[C@@H](C)O)C(=O)N[C@@H](CCSC)C(=O)O [Compound 3, AEAMSQVTNPATIM]", "≥ 500 µM"],
  ["CSCC[C@H](NC(=O)CCCCCCCN)C(=O)NCCCCCCCC(=O)O [Compound 28, N-AocMAoc]", "≥ 500 µM"],
  ["CSCC[C@H](NC(=O)[C@H](C)NC(=O)[C@H](CCC(=O)O)NC(=O)[C@H](C)N)C(=O)O [Compound 19, AEAM] (H-AEAM-OH)", "≥ 500 µM"],
  ["CC(C)[C@H](N)C(=O)N[C@H](C(=O)N[C@@H](CC(N)=O)C(=O)O)[C@@H](C)O [Compound 21, VTN] (H-Val-Thr-Asn-OH)", "≥ 500 µM"]
]}
